Molecular target: GST-tagged ROR gamma ligand binding domain (LBD) (Homo sapiens, UniProt P51449)
Construct: purchased Invitrogen
Sequence (P51449 269-508 limits assumed): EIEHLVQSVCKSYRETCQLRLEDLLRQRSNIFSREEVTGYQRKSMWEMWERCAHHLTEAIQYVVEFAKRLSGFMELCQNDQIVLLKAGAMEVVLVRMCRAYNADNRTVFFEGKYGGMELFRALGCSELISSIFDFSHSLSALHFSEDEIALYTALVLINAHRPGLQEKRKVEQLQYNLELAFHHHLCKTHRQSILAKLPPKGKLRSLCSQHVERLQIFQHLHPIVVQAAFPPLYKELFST
Assay: TR-FRET assay for ROR gamma (LanthaScreen co-activator peptide recruitment)
Format: biochemical
Conditions: compound 1 μM; TR-FRET ratio 520/495, percent of control
Note to self: use Fulfilled only for inhibition at 1 µM readings below 80%; a reading exactly at 80% still gets Not fulfilled.

CCS(=O)(=O)c1ccc(CC(=O)Nc2ccc(OC(C)(C)Cn3ccc4cc(Cl)ccc43)c(F)c2)cc1 [Example 104]; Fulfilled
CCS(=O)(=O)c1ccc(CC(=O)Nc2ccc(OC(C)(C)c3ccc(Cl)c(Cl)c3)nc2)cc1 [Example 59]; Fulfilled
CCCn1c(C(C)(C)Oc2ccc(F)cc2F)nc2cc(NC(=O)Cc3ccc(S(=O)(=O)CC)cc3)ccc21 [Example 115]; Not fulfilled
CCS(=O)(=O)c1ccc(CC(=O)Nc2ccc(OC(C)(C)c3ccc(Cl)cc3F)nc2)cc1 [Example 56]; Not fulfilled
CCS(=O)(=O)c1ccc(CC(=O)Nc2ccc(OC3(c4ccc(Cl)cc4F)CC3)cc2)cc1 [Example 51]; Not fulfilled

## Input Check if inhibition at 1 µM falls below 80% for CCS(=O)(=O)c1ccc(CC(=O)Nc2ccc(OC(C)(C)c3ccc(F)cc3F)c(F)c2)cc1 [Example 107] .
## Output Fulfilled

## Input Would you kindly verify if inhibition at 1 µM of CCS(=O)(=O)c1ccc(CC(=O)Nc2ccc3c(c2)nc(C(C)(C)Oc2ccc(Cl)c(Cl)c2)n3C)cc1 [Example 85] is strictly less than 80%?
## Output Not fulfilled

## Input hey, is inhibition at 1 µM for CCn1c(C(C)(C)Oc2ccc(NC(=O)Cc3ccc(S(=O)(=O)CC)cc3)cc2)nc2ccc(Cl)cc21 [Example 17] lower than 80% or not?
## Output Not fulfilled

## Input is_below(inhibition at 1 µM, 80%) for CCS(=O)(=O)c1ccc(CC(=O)Nc2ccc(C#CCOc3ccc(Cl)c(Cl)c3)cc2)cc1 [Example 61] ?
## Output Not fulfilled

## Input Does CCn1c(C(C)(C)Oc2ccc(NC(=O)Cc3ccc(S(=O)(=O)CC)cc3)cc2F)nc2cc(F)ccc21 [Example 111] have inhibition at 1 µM strictly under 80%?
## Output Not fulfilled

###

Target: GST-tagged ROR gamma ligand binding domain (LBD) (Homo sapiens, UniProt P51449)
Construct: purchased Invitrogen
Assay: TR-FRET assay for ROR gamma (LanthaScreen co-activator peptide recruitment)
Format: biochemical
Details: compound 10 μM; TR-FRET ratio 520/495, percent of control
Procedure: The compounds described herein were screened for ROR gamma modulator activity using the TR-FRET assay by Lantha Screen as described in JBC 2011, 286, 26: 22707-10; and Drug Metabolism and Disposition 2009, 37, 10: 2069-78. […] Test compounds or reference compounds such as T0901317 (Calbiochem) were dissolved in dimethylsulfoxide (DMSO) to prepare 10.0 mM stock solutions and diluted to the desired concentration. […] The inhibition of test compound was calculated based on the TR-FRET ratio of 520/495. […]
REPORTED METRIC: inhibition at 10 µM (%)
Quick reminder: number only, in %, skip the unit.

Solved cases (5 shown):
CCS(=O)(=O)c1ccc(CC(=O)Nc2ccc3c(c2)nc(C(C)(C)Oc2ccc(F)cc2F)n3C(C)C)cc1 [Example 117]; 86.7
CCS(=O)(=O)c1ccc(CC(=O)Nc2ccc(OC3(c4ccc(C(F)(F)F)c(F)c4)COC3)cc2)cc1 [Example 48]; 77.4
CCS(=O)(=O)c1ccc(CC(=O)Nc2ccc(OC3(c4ccc(Cl)cc4)CCOCC3)cc2)cc1 [Example 37]; 83.2
CCS(=O)(=O)c1ccc(CC(=O)Nc2ccc(OC3(c4ccc(Cl)c(F)c4)CCN(C)CC3)cc2)cc1 [Example 44]; 70
CCS(=O)(=O)c1ccc(CC(=O)Nc2ccc(OC3(c4ccc(Cl)c(F)c4)COC3)c(F)c2)cc1 [Example 102]; 84

## Input Form entry - test system: GST-tagged ROR gamma ligand binding domain (LBD) (Homo sapiens, UniProt P51449); read-out: inhibition at 10 µM; compound: CCS(=O)(=O)c1ccc(CC(=O)Nc2ccc(C#CC(C)(C)Oc3ccc(Cl)cc3Cl)cc2)cc1 [Example 63]
## Output 84.5

## Input Entry CCn1c(C(C)(C)Oc2ccc(NC(=O)Cc3ccc(S(=O)(=O)CC)cc3)cc2)nc2cc(F)ccc21 [Example 15] , system GST-tagged ROR gamma ligand binding domain (LBD) (Homo sapiens, UniProt P51449): what inhibition at 10 µM was measured?
## Output 85.2
